B1: TPR t1 (parent)
chain: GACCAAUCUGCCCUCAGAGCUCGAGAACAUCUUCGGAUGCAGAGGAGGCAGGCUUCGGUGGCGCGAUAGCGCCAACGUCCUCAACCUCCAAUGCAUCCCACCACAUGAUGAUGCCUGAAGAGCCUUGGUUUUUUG

- Variants of: B1
- assay_method_text: polymerase ribozyme fitness, log enrichment relative to wild type (log ratio); higher = more active; in vitro selection for triplet polymerase activity

| mutation_list | polymerase ribozyme fitness (log ratio) |
| --- | --- |
| A6C G52C | -0.394 |
| C20A U32A | -3.55 |
| C79U U106A U116C U126C | -1.17 |
| U87A C115U | -0.739 |
| A26G U30C | -4.29 |
| G47C U55G G71U U106A U129A G135C | -2.24 |
| A37U G71A | -1.12 |
| A50U G63C U78A U112C U116G A119C | -6.63 |
| C72G U131G | -0.31 |
